Values compiled from patent US20250296995A1.

Recorded koff by entry
target: T1, recombinant Plasmodium falciparum circumsporozoite protein (CSP) (Plasmodium falciparum, UniProt Q7K740 21-375); test: SPR, recombinant CSP
T1 construct: also called recombinant CSP
T1 sequence (Q7K740 21-375 limits assumed): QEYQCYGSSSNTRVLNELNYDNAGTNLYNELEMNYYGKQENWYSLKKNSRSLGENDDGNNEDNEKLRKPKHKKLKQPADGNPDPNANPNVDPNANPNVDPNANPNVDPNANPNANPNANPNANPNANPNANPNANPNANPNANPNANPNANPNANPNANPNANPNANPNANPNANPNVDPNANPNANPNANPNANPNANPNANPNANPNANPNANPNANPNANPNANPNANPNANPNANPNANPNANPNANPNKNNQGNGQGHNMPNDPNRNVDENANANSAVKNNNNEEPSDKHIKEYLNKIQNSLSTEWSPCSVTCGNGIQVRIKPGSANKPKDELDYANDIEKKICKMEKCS
Record the value in s⁻¹, omitting the unit from your answer.

>  <binder>
AB001428 (antibody, V domains shown) VH: QVQLVESGGGVVQPGRSLRLSCVVSGFTFSSYGMHWVRQAPGKGLEWVAIIWYDGSKKYYADSVKGRFTISRDNSKNTLYLQMNSLRAEDTAVYYCARPGDSSGSHGEAFDIWGQGTMVTVSS VL: DIQMTQSPSTLSASVGDRVTITCRPSQSISNWLAWYQQKPGKAPKLLIYKASSLESGVPSRFSGSGSGTEFTLTISGLQPDDFATYYCQQYNTYWTFGQGTKVEIK

>  <parameter-measured>
koff

>  <unit-annotation>
s⁻¹

>  <recorded-result>
0.00101

$$$$

Q) Requested read-out: koff. Entry: AB001558 (antibody, V domains shown) VH: QVQLVESGGGVVQPGRSLRLSCAASGFTFSSYGMHWVRQAPGKGLEWVAVIWYDGNNKYYVDSVKGRFTISRDNSKNTLYLQMNSLRAEDTAVYYCARDHDADYVEKWGAFDLWGQGTMVTVSS VL: EIVMTQSPATLSVSPGERATLSCRASQSVSSNLAWYQQKPGQAPRLLIYGASARATGIPARFSGSGSGTEFTLTISSLQSEDFAVYYCQQYNNGRTFGQGTKVEIT
A) 0.000797
